Recorded melting point values for a group of compounds are listed next.

Observe how each entry below is paired with its result.
O=C(O)Cc1c[nH]c2c(Cl)cccc12 :: 164 to 165 °C
O=C(O)Cc1c[nH]c2ccc(OC(F)(F)F)cc12 :: 120 to 122 °C
O=C(O)Cc1c[nH]c2c(F)cccc12 :: 159 to 161 °C
O=C(O)Cc1c[nH]c2cccc(F)c12 :: 129 to 131 °C
O=C(O)Cc1c[nH]c2ccc(-c3ccc(Cl)cc3)cc12 :: 166 to 168 °C

# compound `O=C(O)Cc1c[nH]c2cc(Cl)cc(Cl)c12` ; its melting point = 223 to 224 °C

# compound `O=C(O)Cc1c[nH]c2ccc(Cl)cc12` ; its melting point = 160 to 161 °C

# compound `Cc1cc(F)c2[nH]cc(CC(=O)O)c2c1` ; its melting point = 138 to 140 °C
